B1: TPR t1 (parent)
chain: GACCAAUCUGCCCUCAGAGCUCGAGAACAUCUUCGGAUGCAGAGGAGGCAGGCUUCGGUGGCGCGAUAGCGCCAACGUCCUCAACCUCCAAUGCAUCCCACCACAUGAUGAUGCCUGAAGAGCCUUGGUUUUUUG

variants of: B1; assay: polymerase ribozyme fitness, log enrichment relative to wild type (log ratio); higher = more active; in vitro selection for triplet polymerase activity
Lab note: anything with polymerase ribozyme fitness (log ratio) at or over -3 counts as Condition met; the rest go in Condition not met.

sequence-variant: U32C U33A C104A U109G C114U A121U G122C
class-label: Condition not met
--
sequence-variant: C12G A43U
class-label: Condition met
--
sequence-variant: C22U C49U C89A C123U
class-label: Condition not met
--
sequence-variant: C70G A121G U131A
class-label: Condition met
--
sequence-variant: G63U U96C
class-label: Condition met

hey, is polymerase ribozyme fitness (log ratio) for this one >= -3? C13A U38C C49G G61U U106G C115G G135C
Condition not met

hey, is polymerase ribozyme fitness (log ratio) for this one >= -3? C12G A41U G44C C64U C82G G113U
Condition not met

hey, is polymerase ribozyme fitness (log ratio) for this one >= -3? G35C A50G C53G U67G C124A G135U
Condition not met

hey, is polymerase ribozyme fitness (log ratio) for this one >= -3? C20U C56A G71U A118U G120U
Condition met

hey, is polymerase ribozyme fitness (log ratio) for this one >= -3? G36U G39U C70U A111G
Condition not met

hey, is polymerase ribozyme fitness (log ratio) for this one >= -3? C8A G110A
Condition met

hey, is polymerase ribozyme fitness (log ratio) for this one >= -3? G23A G48U
Condition not met

hey, is polymerase ribozyme fitness (log ratio) for this one >= -3? A37U C72U
Condition met

hey, is polymerase ribozyme fitness (log ratio) for this one >= -3? C8G C88A
Condition met
